Property: melting point; scope: individual compounds

Sample answers from the record:
COc1cc2c(cc1OC)CCCC(C(=O)N1CCN(Cc3cc(OC)c(OC)c(OC)c3)C(C(=O)O)C1)=C2 (stereo not given)	142 to 144 °C
CCCn1c(Cl)nc2ccc(I)cc2c1=O	98 to 100 °C
Cn1nnnc1CC(=O)c1cc(F)c(Cl)cc1N	180 to 184 °C
Cc1nc(-n2ccc3cc(O)ccc3c2=O)sc1C(=O)NCc1ccccc1	225 to 228 °C

Could you now consider this next compound?
Could you please provide reported melting point for CCCC[C@]12OC1CC[C@]1(C)CC[C@@H]3C[C@@]12OC3(C)C (stereo not given in full) ? Thanks!
70 to 72 °C

----------
Property: melting point

Example entries and their recorded answers appear below.
CN(Cc1ccc2c(c1)Nc1nccnc1S2)C(N)=C[N+](=O)[O-]	> 265 °C
COc1cc(OCC(=O)O)c(C)cc1SCc1ccc(-c2ccccc2)cc1	60 to 62 °C
CC1(C2CCCC2)Cc2cc(OCC(=O)O)c(Cl)c(Cl)c2C1O (stereo not given)	129 to 131 °C
CCC(CC)n1nnc2c(Nc3ccc(C(C)C)cc3Br)nc(C)cc21	144 to 145 °C

Retrieve melting point measured for O=C(CCc1ccccc1)N[C@H]1CCCN2CCC[C@@H](C(=O)O)N2C1=O and print it.
198 to 202 °C

----------
Examples of compounds with documented melting point follow.

Example entries begin here.
ON=C1CCCc2cc(OCCn3ccnc3)ccc21	177 to 179 °C
CCC(=C(c1ccc(O)cc1)c1ccc(O)cc1)c1cccc(-c2c(C)noc2C)c1	173 to 174 °C
CC(C)=CCNc1cccc(-c2ccnc3c(C(=O)c4cccs4)cnn23)c1	116 to 118 °C
O=C1NC(=O)C2(c3cc(O)c(Cl)cc3F)CCCCC12 (stereo unspecified)	140 to 141 °C
CCCCCCNC1=CC(=O)c2c(OC)ccc(OC)c2C1=O	83 to 84 °C

Indicate its recorded melting point; the compound in question is COC(=O)CCCCc1cc2cc(Cl)ccc2n1S(=O)(=O)c1ccccc1
95 to 98 °C

Tell me melting point reported for CN(C(=O)c1ccc(C(C)(C)C)cc1)C1N(C)C(c2ccc(F)cc2)=NC1(C(F)(F)F)C(F)(F)F (stereo unspecified)
129 to 130 °C

Dear colleague, please send me the reported melting point for COc1ccc(Cc2nc3c(O)cccc3o2)cc1OC1CCCC1 when you can.
172 to 181 °C

# return recorded melting point for entry Cc1cc2c(O)nc(O)nc2s1
> 300 °C

----------
Property: melting point

CCc1ccc(C2C(C#N)=C(CC(C)C)NC(C)=C2C(=O)OC(C)(C)C)cc1 (centres undefined)	165 to 166 °C
O=S(=O)(NCCc1ccc(OCc2nnn[nH]2)cc1)c1ccc(Cl)cc1	136 °C
COc1ccc(SCCCC(=O)O)cc1OC	78 °C
O=C(NCC1Cc2cccc(-c3ccc(Cl)cc3Cl)c2O1)OCc1ccccc1 (centres undefined)	87 to 89 °C
CC(C)c1nc(CCOC(N)=O)n(Cc2ccncc2)c1Sc1cc(Cl)cc(Cl)c1	189 to 191 °C

Let me know recorded melting point for CC(C)(NCc1ccc(Oc2ccc3c(c2)OCO3)cc1)C(N)=O , thanks.
123 to 124 °C

Return reported melting point. Input compound: CN(C)CCOc1ccc2[nH]c(C(=O)N3CC(CCl)c4c3cc([N+](=O)[O-])c3cc([N+](=O)[O-])ccc43)cc2c1 (centres undefined)
263 to 264 °C

// fetch melting point given entry CCN1c2ncc([N+](=O)[O-])cc2C(=O)N(C)c2cccnc21
148 to 149 °C

Dear colleague, please send me the reported melting point for COc1cc(-c2ccc(C#N)cc2)cc(-c2nc3cc(C#N)ccc3[nH]2)c1O when you can.
334 to 335 °C
